Test system: ACHN
Assay: Cytotoxicity against human ACHN cells assessed as cell growth at 0.01 uM after 48 hrs by sulforhodamine B assay relative to control
Format: functional
Conditions: read-out: Activity
observation_type: growth at 0.01 µM (%)
Please respond with the number in % and leave the unit unwritten.

[
  {
    "compound_structure": "COc1ccc(C(=O)/C=C/c2cc(-c3ccc(OC)c(OC)c3)n[nH]2)cc1OC",
    "measurement_unit": "%",
    "growth at 0.01 µM": 93
  }
]

[Q] Find the measured growth at 0.01 µM of COc1ccc(-c2cc(/C=C/C(=O)c3ccc(N)cc3)[nH]n2)cc1 and report it.
[A] 103

[Q] Find the measured growth at 0.01 µM of COc1ccc(C(=O)/C=C/c2cc(-c3cc(OC)c(OC)c(OC)c3)n[nH]2)cc1 and report it.
[A] 102
